CC50 at 72 h listing for selected compounds.
- procedure summary: Cytotoxicity assay (MTS)
- Assay type: cell-based
- experimental context: human, Huh7/Rep-Feo cells, 72 h post-treatment, read-out: CC50 (50% cytotoxicity concentration)
// return numeric value only (unit: µM, not printed)

Q. Find the recorded CC50 at 72 h belonging to CCCc1cc(O)c2c(=O)c3c(O)cc(OS(=O)(=O)O)cc3cc-2o1 and report it.
A. 52

Attention now turns to another entry.
Q. Find the recorded CC50 at 72 h belonging to Cc1cc(O)c2c(=O)c3c(O)c(-c4c(OS(=O)(=O)O)cc(O)c5c(=O)c6c(O)cc(C)oc-6cc45)c(OS(=O)(=O)O)cc3cc-2o1 and report it.
A. 70

###

- system under test: HCV NS3 helicase (Hepatitis C virus genotype 1a)
- Construct: HCV NS3 protein with helicase activity was expressed and purified as previously described; made in house
- Sequence (P27958 1027-1657): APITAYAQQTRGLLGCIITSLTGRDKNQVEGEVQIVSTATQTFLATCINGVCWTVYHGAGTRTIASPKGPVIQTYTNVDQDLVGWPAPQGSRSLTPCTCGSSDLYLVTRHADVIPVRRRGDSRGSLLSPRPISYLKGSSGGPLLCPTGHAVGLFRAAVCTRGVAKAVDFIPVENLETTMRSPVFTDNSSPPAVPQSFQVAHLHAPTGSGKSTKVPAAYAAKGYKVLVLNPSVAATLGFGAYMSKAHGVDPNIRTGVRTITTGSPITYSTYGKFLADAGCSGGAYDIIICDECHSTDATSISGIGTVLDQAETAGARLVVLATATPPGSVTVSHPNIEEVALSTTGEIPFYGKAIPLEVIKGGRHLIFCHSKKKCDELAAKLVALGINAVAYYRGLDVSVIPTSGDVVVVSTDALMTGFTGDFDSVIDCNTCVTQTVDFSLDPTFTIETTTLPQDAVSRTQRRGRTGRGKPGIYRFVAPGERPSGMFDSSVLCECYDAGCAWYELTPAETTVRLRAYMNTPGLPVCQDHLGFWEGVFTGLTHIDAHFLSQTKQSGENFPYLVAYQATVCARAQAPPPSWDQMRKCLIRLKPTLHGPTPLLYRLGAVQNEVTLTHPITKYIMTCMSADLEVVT
- procedure summary: fluorescence helicase assay based on FRET
- Format: biochemical
- experimental context: dsRNA substrate labeled with Alexa Fluor 700 and Black Hole Quencher 3; 240 nM NS3 helicase; 30 min at 37 °C; triplicate; read-out: IC50 against NS3 helicase
observable: IC50
In your response, put the unit directly after the numeric value.

Q. Return IC50 measured with HCV NS3 helicase (Hepatitis C virus genotype 1a) given this compound: CCCc1cc(O)c2c(=O)c3c(O)cc(OS(=O)(=O)O)cc3cc-2o1 [Compound 2]
A. 95 µM

Q. Same for Cc1cc(O)c2c(=O)c3c(O)cc(OS(=O)(=O)O)cc3cc-2o1 [Compound 1]
A. 71 µM

Q. Same for Cc1cc(O)c2c(=O)c3c(O)c(-c4c(OS(=O)(=O)O)cc(O)c5c(=O)c6c(O)cc(C)oc-6cc45)c(OS(=O)(=O)O)cc3cc-2o1 [Compound 3]
A. 7 µM

Attention now turns to another entry.
Q. Return IC50 measured with HCV NS3 helicase (Hepatitis C virus genotype 1a) given this compound: CCCc1cc(O)c2c(=O)c3c(O)c(-c4c(OS(=O)(=O)O)cc(O)c5c(=O)c6c(O)cc(C)oc-6cc45)c(OS(=O)(=O)O)cc3cc-2o1 [Compound 4]
A. 5 µM

Data provenance is paper PMC5408263.
